# System: 997726-040-R-J2-PDC tumor spheroids, viability
# protocol text: Anticancer human tumor 997726-040-R-J2-PDC patient-derived squamous cell lung carcinoma cell line growth inhibition [PI3K]
# condition description: curve of first compound; second compound 0.01 µM; spheroids with HUVEC and MSC
measurement label: IC50

// below: answered molecules
molecule	IC50
CC(Cn1ccc(-c2ccc(C#N)c(Cl)c2)n1)NC(=O)c1cc(C(C)O)[nH]n1 (stereo not drawn) + COc1c(OCCCN2CCOCC2)ccc2c3n(c(=NC(=O)c4cnc(N)nc4)nc12)CCN3	> 10 µM
CC1(C)CCC(Nc2ncc(C(F)(F)F)c(-c3c[nH]c4c(P(C)(C)=O)c(C#N)ccc34)n2)CN1 (stereo not drawn) + COc1c(OCCCN2CCOCC2)ccc2c3n(c(=NC(=O)c4cnc(N)nc4)nc12)CCN3	< 0.0316 µM

// query Need IC50 of CNC(=O)c1ccc(N2C(=S)N(c3ccc(C#N)c(C(F)(F)F)c3)C(=O)C2(C)C)cc1F + COc1c(OCCCN2CCOCC2)ccc2c3n(c(=NC(=O)c4cnc(N)nc4)nc12)CCN3 , thanks.
// result > 10 µM

###

# System: 997726-040-R-J2-PDC tumor spheroids, viability
# protocol text: Anticancer human tumor 997726-040-R-J2-PDC cell line growth inhibition [PI3K];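 further: spheroids exposed to compounds for seven days before readout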
# condition description: second compound 0.00316 µM; first compound 0.00316 µM; stronger effect = lower value; spheroids with HUVEC and MSC
Each item that follows carries a reported viability, T/C.
Give the number; % is assumed, so skip it.

// query Need viability, T/C of Cn1ncnc1[C@H]1c2n[nH]c(=O)c3cc(F)cc(c23)N[C@@H]1c1ccc(F)cc1 + CC(Nc1ccc2c(c1)OCCn1cc(N3C(=O)OCC3C(F)F)nc1-2)C(N)=O , thanks.
// result 95.7

// query Entry CCN1CCN(Cc2ccc(Nc3ncc(F)c(-c4cc(F)c5nc(C)n(C(C)C)c5c4)n3)nc2)CC1 + CC(Nc1ccc2c(c1)OCCn1cc(N3C(=O)OCC3C(F)F)nc1-2)C(N)=O please
// result 79

// query Entry CC(C)n1nc(-c2ccc3oc(N)nc3c2)c2c(N)ncnc21 + CC(Nc1ccc2c(c1)OCCn1cc(N3C(=O)OCC3C(F)F)nc1-2)C(N)=O please
// result 73.5

// query Entry CC(=O)c1c(C)c2cnc(Nc3ccc(N4CCNCC4)cn3)nc2n(C2CCCC2)c1=O + COc1c(OCCCN2CCOCC2)ccc2c3n(c(=NC(=O)c4cnc(N)nc4)nc12)CCN3 please
// result 69.8

###

Each item that follows carries a reported viability, T/C.
# System: 997726-040-R-J2-PDC tumor spheroids, viability
# protocol text: Anticancer human tumor 997726-040-R-J2-PDC cell line growth inhibition [PI3K];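 further: spheroids exposed to compounds for seven days before readout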
# condition description: second compound 0.316 µM; first compound 0.0316 µM; stronger effect = lower value; spheroids with HUVEC and MSC
# From the text: Combinatorial screen of targeted agents with the PI3K inhibitors inavolisib, alpelisib, duvelisib, and copanlisib in multi-cell type tumor spheroids A high-throughput screen of multi-cell type tumor spheroids was designed to identify active combinations of targeted small molecules and PI3K pathway inhibitors. […] Compounds. […] If the clinical Cmax for an agent had not been determined, the highest concentration tested was 10 microM. […]
Give the number; % is assumed, so skip it.

// below: answered molecules
molecule	measurement label	numeric value
C#Cc1c(F)ccc2cc(O)cc(-c3ncc4c(N5CC6CCC(C5)N6)nc(OCC56CCCN5CC(F)C6)nc4c3F)c12 (stereo not given) + COc1c(OCCCN2CCOCC2)ccc2c3n(c(=NC(=O)c4cnc(N)nc4)nc12)CCN3	viability, T/C	4.68
CC1(C)CCC(CN2CCN(c3ccc(C(=O)NS(=O)(=O)c4ccc(NCC5CCOCC5)c([N+](=O)[O-])c4)c(Oc4cnc5[nH]ccc5c4)c3)CC2)=C(c2ccc(Cl)cc2)C1 + CC(Nc1ncnc2nc[nH]c12)c1cc2cccc(Cl)c2c(=O)n1-c1ccccc1	viability, T/C	97.1
C[C@@H](NC(=O)c1ncnc(N)c1Cl)c1ncc(C(=O)Nc2cc(C(F)(F)F)c(Cl)cn2)s1 + CC(Nc1ccc2c(c1)OCCn1cc(N3C(=O)OCC3C(F)F)nc1-2)C(N)=O	viability, T/C	42.3
CC1(C)CCC(Nc2ncc(C(F)(F)F)c(-c3c[nH]c4c(P(C)(C)=O)c(C#N)ccc34)n2)CN1 (stereo not given) + CC(Nc1ccc2c(c1)OCCn1cc(N3C(=O)OCC3C(F)F)nc1-2)C(N)=O	viability, T/C	14.6
C[C@@H](NC(=O)c1ncnc(N)c1Cl)c1ncc(C(=O)Nc2cc(C(F)(F)F)c(Cl)cn2)s1 + COc1c(OCCCN2CCOCC2)ccc2c3n(c(=NC(=O)c4cnc(N)nc4)nc12)CCN3	viability, T/C	6.28
C=CC(=O)N1CCN(c2nc(=O)n(-c3c(C)ccnc3C(C)C)c3nc(-c4c(O)cccc4F)c(F)cc23)C(C)C1 (stereo not given) + CC(Nc1ccc2c(c1)OCCn1cc(N3C(=O)OCC3C(F)F)nc1-2)C(N)=O	viability, T/C	31.6
CC1(C)CCC(Nc2ncc(C(F)(F)F)c(-c3c[nH]c4c(P(C)(C)=O)c(C#N)ccc34)n2)CN1 (stereo not given) + Cc1nc(NC(=O)N2CCCC2C(N)=O)sc1-c1ccnc(C(C)(C)C(F)(F)F)c1	viability, T/C	23.7
CC(=O)c1c(C)c2cnc(Nc3ccc(N4CCNCC4)cn3)nc2n(C2CCCC2)c1=O + COc1c(OCCCN2CCOCC2)ccc2c3n(c(=NC(=O)c4cnc(N)nc4)nc12)CCN3	viability, T/C	5.14
CC(C)n1nc(-c2ccc3oc(N)nc3c2)c2c(N)ncnc21 + Cc1nc(NC(=O)N2CCCC2C(N)=O)sc1-c1ccnc(C(C)(C)C(F)(F)F)c1	viability, T/C	28.6
Cn1ncnc1[C@H]1c2n[nH]c(=O)c3cc(F)cc(c23)N[C@@H]1c1ccc(F)cc1 + Cc1nc(NC(=O)N2CCCC2C(N)=O)sc1-c1ccnc(C(C)(C)C(F)(F)F)c1	viability, T/C	58.4

Shifting focus to the molecule that follows.
// query Need viability, T/C of CCCS(=O)(=O)Nc1ccc(F)c(C(=O)c2c[nH]c3ncc(-c4ccc(Cl)cc4)cc23)c1F + Cc1nc(NC(=O)N2CCCC2C(N)=O)sc1-c1ccnc(C(C)(C)C(F)(F)F)c1 , thanks.
// result 55.6

###

# System: 997726-040-R-J2-PDC tumor spheroids, viability
# protocol text: Anticancer human tumor 997726-040-R-J2-PDC cell line growth inhibition [PI3K];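 further: spheroids exposed to compounds for seven days before readout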
# condition description: curve of first compound; second compound 0.1 µM; spheroids with HUVEC and MSC
measurement label: IC50

molecule	IC50
CC(=O)c1c(C)c2cnc(Nc3ccc(N4CCNCC4)cn3)nc2n(C2CCCC2)c1=O + COc1c(OCCCN2CCOCC2)ccc2c3n(c(=NC(=O)c4cnc(N)nc4)nc12)CCN3	< 0.000316 µM
CC1(C)CCC(Nc2ncc(C(F)(F)F)c(-c3c[nH]c4c(P(C)(C)=O)c(C#N)ccc34)n2)CN1 (configuration not stated) + Cc1nc(NC(=O)N2CCCC2C(N)=O)sc1-c1ccnc(C(C)(C)C(F)(F)F)c1	< 0.0316 µM
C#Cc1c(F)ccc2cc(O)cc(-c3ncc4c(N5CC6CCC(C5)N6)nc(OCC56CCCN5CC(F)C6)nc4c3F)c12 (configuration not stated) + Cc1nc(NC(=O)N2CCCC2C(N)=O)sc1-c1ccnc(C(C)(C)C(F)(F)F)c1	> 10 µM
CC1(C)CCC(Nc2ncc(C(F)(F)F)c(-c3c[nH]c4c(P(C)(C)=O)c(C#N)ccc34)n2)CN1 (configuration not stated) + CC(Nc1ccc2c(c1)OCCn1cc(N3C(=O)OCC3C(F)F)nc1-2)C(N)=O	< 0.0316 µM
CC(Cn1ccc(-c2ccc(C#N)c(Cl)c2)n1)NC(=O)c1cc(C(C)O)[nH]n1 (configuration not stated) + Cc1nc(NC(=O)N2CCCC2C(N)=O)sc1-c1ccnc(C(C)(C)C(F)(F)F)c1	> 10 µM

// query Lab note: need IC50 with 997726-040-R-J2-PDC tumor spheroids, viability for entry C[C@@H](NC(=O)c1ncnc(N)c1Cl)c1ncc(C(=O)Nc2cc(C(F)(F)F)c(Cl)cn2)s1 + Cc1nc(NC(=O)N2CCCC2C(N)=O)sc1-c1ccnc(C(C)(C)C(F)(F)F)c1 , please look it up.
// result > 10 µM

// query Entry Cn1nccc1Nc1nccc(-c2ccn(C(CO)c3ccc(Cl)c(F)c3)c(=O)c2)n1 (configuration not stated) + COc1c(OCCCN2CCOCC2)ccc2c3n(c(=NC(=O)c4cnc(N)nc4)nc12)CCN3 please
// result < 0.0316 µM

// query Entry Cn1ncc(Cl)c1-c1cc(C(=O)NC(CN)Cc2cccc(F)c2)sc1Cl (configuration not stated) + CC(Nc1ccc2c(c1)OCCn1cc(N3C(=O)OCC3C(F)F)nc1-2)C(N)=O please
// result < 0.0316 µM

// query Entry Cn1ncnc1[C@H]1c2n[nH]c(=O)c3cc(F)cc(c23)N[C@@H]1c1ccc(F)cc1 + CC(Nc1ncnc2nc[nH]c12)c1cc2cccc(Cl)c2c(=O)n1-c1ccccc1 please
// result > 0.1 µM

// query Entry CNC(=O)c1ccc(N2C(=S)N(c3ccc(C#N)c(C(F)(F)F)c3)C(=O)C2(C)C)cc1F + Cc1nc(NC(=O)N2CCCC2C(N)=O)sc1-c1ccnc(C(C)(C)C(F)(F)F)c1 please
// result > 10 µM

// query Entry Cn1cnc2c(F)c(Nc3ccc(Br)cc3Cl)c(C(=O)NOCCO)cc21 + COc1c(OCCCN2CCOCC2)ccc2c3n(c(=NC(=O)c4cnc(N)nc4)nc12)CCN3 please
// result < 0.00949 µM

// query Entry CC(=O)c1c(C)c2cnc(Nc3ccc(N4CCNCC4)cn3)nc2n(C2CCCC2)c1=O + CC(Nc1ncnc2nc[nH]c12)c1cc2cccc(Cl)c2c(=O)n1-c1ccccc1 please
// result > 0.1 µM
